test: M. tuberculosis H37Rv growth inhibitors, H37Rv strain (AID 1626); conditions: hits give high values, concentration not given here;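 also: bacteria incubated seven days before Alamar blue readout; 0% = bacteria only wells and 100% = bacteria with antibiotic wells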
Out of some 220,000 compounds screened, about 2,000 (0.91%) were called active. Another 2% or so got no clear call; they are omitted. A selection follows. Results with a measured potency or affinity are listed apart.
Below is a list of entries, each paired with its recorded inhibition value.
MEASURE_NAME: inhibition (%)

{"COMPOUND": "COc1cccc(CNc2ncnc3cc(Cl)ccc23)c1", "MEASUREMENT_UNIT": "%", "RECORDED_RESULT": 2.79}
{"COMPOUND": "CCc1nnc(NC(=O)C(NC(=O)c2ccccc2Cl)C(C)C)s1 (stereo unspecified)", "MEASUREMENT_UNIT": "%", "RECORDED_RESULT": 3.06}
{"COMPOUND": "CCc1ccc(/C=N/NC(=O)c2cc(C)on2)s1", "MEASUREMENT_UNIT": "%", "RECORDED_RESULT": 4.86}
{"COMPOUND": "O=C(CN1CCN(S(=O)(=O)c2ccccc2)CC1)Nc1ccc2c(c1)OCO2", "MEASUREMENT_UNIT": "%", "RECORDED_RESULT": -8.01}
{"COMPOUND": "O=[N+]([O-])C(=C1Nc2ccccc2N1)C(Cl)=C(Cl)Cl", "MEASUREMENT_UNIT": "%", "RECORDED_RESULT": 0.64}
{"COMPOUND": "CCN(CC)P(=O)(Oc1ccccc1)Oc1ccccc1", "MEASUREMENT_UNIT": "%", "RECORDED_RESULT": 7.92}
{"COMPOUND": "Cc1csc(NC(=O)C(NC(=O)c2ccccc2F)C(C)C)n1 (stereo unspecified)", "MEASUREMENT_UNIT": "%", "RECORDED_RESULT": 5.45}
{"COMPOUND": "COc1ccc(CNc2ncnc3cc(Cl)ccc23)cc1OC", "MEASUREMENT_UNIT": "%", "RECORDED_RESULT": 3.34}
{"COMPOUND": "CN(c1ccc(C(=O)N2CCN(Cc3ccc4c(c3)OCO4)CC2)cc1)S(=O)(=O)c1ccccc1", "MEASUREMENT_UNIT": "%", "RECORDED_RESULT": 7.14}
{"COMPOUND": "CC(=O)c1c(C)[nH]c(C(=O)CSc2nnc(CN3CCCCCC3=O)n2-c2ccccn2)c1C", "MEASUREMENT_UNIT": "%", "RECORDED_RESULT": -2.46}
{"COMPOUND": "COCCCNC(=O)c1ccc(-n2nc(C(F)(F)F)cc2-c2cccs2)cc1", "MEASUREMENT_UNIT": "%", "RECORDED_RESULT": 2.29}

src = PubChem BioAssay AID1626
